biological target: Human mGlu3 (Homo sapiens); assay: mGlu receptor in vitro assay, human mGlu3
Sequence (Q14832 23-879): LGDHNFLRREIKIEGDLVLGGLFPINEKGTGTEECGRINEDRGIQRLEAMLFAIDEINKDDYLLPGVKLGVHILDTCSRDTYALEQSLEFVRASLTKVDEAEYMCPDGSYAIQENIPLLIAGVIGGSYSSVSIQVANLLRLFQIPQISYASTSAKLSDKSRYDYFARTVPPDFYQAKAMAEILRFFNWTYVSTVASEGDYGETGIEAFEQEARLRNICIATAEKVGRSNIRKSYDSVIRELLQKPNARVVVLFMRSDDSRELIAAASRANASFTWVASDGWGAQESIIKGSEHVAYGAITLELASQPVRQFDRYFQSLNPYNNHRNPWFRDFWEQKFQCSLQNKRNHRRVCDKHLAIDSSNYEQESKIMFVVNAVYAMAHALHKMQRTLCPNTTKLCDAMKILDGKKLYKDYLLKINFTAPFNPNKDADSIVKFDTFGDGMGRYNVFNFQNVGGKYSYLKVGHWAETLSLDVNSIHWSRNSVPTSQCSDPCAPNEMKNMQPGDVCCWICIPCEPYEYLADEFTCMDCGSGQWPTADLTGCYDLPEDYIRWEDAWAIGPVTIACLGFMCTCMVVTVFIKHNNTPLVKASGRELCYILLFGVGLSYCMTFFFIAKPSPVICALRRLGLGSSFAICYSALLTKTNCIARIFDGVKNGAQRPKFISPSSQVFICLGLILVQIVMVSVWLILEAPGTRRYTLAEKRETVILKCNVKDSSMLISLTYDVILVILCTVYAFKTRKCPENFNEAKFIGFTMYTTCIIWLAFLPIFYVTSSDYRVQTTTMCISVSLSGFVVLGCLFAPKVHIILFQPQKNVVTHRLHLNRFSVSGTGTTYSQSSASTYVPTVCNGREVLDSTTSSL
metric name: EC50 (nM)

Use the examples below as a reference point.
compound | assay system | measurement units | EC50
COc1ccc(C(=O)O)cc1OCCCCOc1ccc(C(=O)c2ccccc2)c(O)c1C | Human mGlu3 (Homo sapiens) | nM | 408
COc1ccc(C(=O)O)cc1OCCCCOc1ccc(C(=O)C2CC2)c(O)c1C | Human mGlu3 (Homo sapiens) | nM | 598
Cc1c(OCc2cnc(-c3ccc(C(=O)O)s3)cn2)ccc(C(=O)CC(C)(C)C)c1O | Human mGlu3 (Homo sapiens) | nM | 603

1: COc1ccc(C(=O)O)cc1OCCCCOc1ccc(C(=O)CC(C)(C)C)c(O)c1-c1ccccc1
2: CCCC(=O)c1ccc(OCCSCCOc2ccc(C(=O)O)c(Cl)c2)c(C)c1O
Req: Determine, for 1 and 2 , which has the greater value of EC50. Give the label of your selection.
Resp: 1

A: COc1ccc(-c2cnc(COc3ccc(C(=O)CC(C)(C)C)c(O)c3C)cn2)cc1C(=O)O
B: Cc1c(OCC#CCOc2ccc(C(=O)CC(C)(C)C)c(O)c2C)cccc1C(=O)O
Req: Please indicate which entry, A or B , has the lower recorded EC50 value. Let me know the label of the one you choose.
Resp: B

A: COc1ccc(C(=O)O)cc1OCCC(C)COc1ccc(C(=O)CC(C)(C)C)c(O)c1C (centres unmarked)
B: Cc1c(OCCCCCOc2ccc(C(=O)O)c(Cl)c2)ccc(C(=O)CC(C)C)c1O
C: Cc1c(OCCCCSc2cccc(C(=O)O)c2)ccc(C(=O)CC(C)C)c1O
D: COc1c(C(=O)O)cccc1-c1ccc(COc2ccc(C(=O)CC(C)(C)C)c(O)c2C)cn1
Req: Arrange items by their EC50 values in increasing order. Output spec: a listing of the labels in the requested order.
Resp: D, A, B, C

I: Cc1c(OCCCCSc2cccc(C(=O)O)c2)ccc(C(=O)CC(C)(C)C)c1O
II: Cc1c(OCCSCCOc2ccc(C(=O)CC(C)(C)C)c(O)c2C)cccc1C(=O)O
III: [2H]C([2H])(CCCC([2H])([2H])Oc1ccc(C(=O)CCC)c(O)c1C)Oc1ccc(C(=O)O)c(Cl)c1
Req: # rank_down: sort by EC50, max first Write the labels in rank order as requested.
Resp: III, I, II

###

target: Rat mGlu2 (Rattus norvegicus, UniProt P31421); assay: mGlu receptor in vitro assay, thallium flux through GIRK channels, rat mGlu2; conditions: PAM potency with EC20 glutamate
Sequence (P31421 19-872): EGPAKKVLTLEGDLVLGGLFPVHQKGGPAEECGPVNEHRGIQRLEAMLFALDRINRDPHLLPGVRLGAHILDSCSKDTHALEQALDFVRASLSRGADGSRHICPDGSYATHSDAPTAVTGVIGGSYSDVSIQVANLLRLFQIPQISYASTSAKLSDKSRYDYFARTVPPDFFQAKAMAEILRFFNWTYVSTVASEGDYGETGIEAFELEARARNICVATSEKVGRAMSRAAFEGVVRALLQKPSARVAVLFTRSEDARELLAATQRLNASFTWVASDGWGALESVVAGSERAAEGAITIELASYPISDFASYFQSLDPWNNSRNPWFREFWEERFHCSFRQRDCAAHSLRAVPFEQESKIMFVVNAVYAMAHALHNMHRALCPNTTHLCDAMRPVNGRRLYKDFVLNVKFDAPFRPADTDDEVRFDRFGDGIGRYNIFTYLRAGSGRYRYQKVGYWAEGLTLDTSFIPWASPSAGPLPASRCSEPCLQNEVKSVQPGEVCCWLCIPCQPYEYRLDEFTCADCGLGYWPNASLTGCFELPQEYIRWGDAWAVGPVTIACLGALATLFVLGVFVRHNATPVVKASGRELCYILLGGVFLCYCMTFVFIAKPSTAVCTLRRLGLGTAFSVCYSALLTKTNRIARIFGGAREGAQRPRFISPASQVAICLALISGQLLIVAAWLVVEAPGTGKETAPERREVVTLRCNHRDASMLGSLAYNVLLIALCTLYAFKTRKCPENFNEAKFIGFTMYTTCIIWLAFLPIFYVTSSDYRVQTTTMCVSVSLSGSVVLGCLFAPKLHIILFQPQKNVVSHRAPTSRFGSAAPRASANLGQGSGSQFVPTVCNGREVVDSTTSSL
metric name: EC50 (nM)

Consider the worked cases shown below.
molecule | value observed
CCCC(=O)c1ccc(OCCSCCOc2cccc(C(=O)O)c2C)c(C)c1O | 56
COc1ccc(C(=O)O)cc1OCCCCOc1ccc(C(=O)C2CC2)c(O)c1C | 117
COc1ccc(C(=O)O)cc1OC/C=C/COc1ccc(C(=O)CC(C)(C)C)c(O)c1C | 67
Cc1c(OCCOCCOc2ccc(C(=O)CC(C)(C)C)c(O)c2C)cccc1C(=O)O | 91
COc1ccc(C(=O)O)cc1C#CCCCOc1ccc(C(=O)CC(C)(C)C)c(O)c1C | 456
CCCC(=O)c1ccc(OCCOCCNc2cccc(C(=O)O)c2)c(C)c1O | 73
COc1ccc(C(=O)O)cc1OCCCCSc1ccc(C(=O)CC(C)(C)C)c(O)c1C | 382
CCCC(=O)c1ccc(OCCSCCOc2ccc(C(=O)O)c(Cl)c2)c(C)c1O | 27
Cc1c(OCOc2ccc(C(=O)CC(C)(C)C)c(O)c2C)cccc1C(=O)O | 441
COc1ccc(C(=O)O)cc1OCCCOc1ccc(C(=O)CC(C)(C)C)c(O)c1C | 57

I: CCCC(=O)c1ccc(OCCCCCOc2ccc(Cl)c(C(=O)O)c2)c(C)c1O
II: COc1ccc(NC(=O)NS(C)(=O)=O)cc1OCCCCOc1ccc(C(=O)CC(C)(C)C)c(O)c1C
III: CCCC(=O)c1ccc(OCCCCCOc2ccc(C(=O)O)cc2OC)c(C)c1O
IV: CCCC(=O)c1ccc(OCCCCCOc2ccc(C(=O)O)c(F)c2)c(C)c1O
V: Cc1c(OCc2cnc(-c3cccc(-c4nn[nH]n4)c3)cn2)ccc(C(=O)CC(C)(C)C)c1O
Req: Order the items by recorded EC50; the first position goes to the largest value. Order the labels as requested and give them as your answer.
Resp: II, V, IV, I, III

1: Cc1c(OC/C=C/COc2ccc(C(=O)CC(C)(C)C)c(O)c2C)cccc1C(=O)O
2: CCCC(=O)c1ccc(OCCCCCOc2cnc(C)c(C(=O)O)c2)c(C)c1O
Req: Could you please tell me which of these two has the higher EC50: 1 or 2 ? # reply format: chosen label
Resp: 2
(2: 110 nM, 1: 38 nM)

a: COc1ccc(C(=O)O)cc1-c1cncc(COc2ccc(C(=O)C3CC3)c(O)c2C)n1
b: Cc1c(OCc2cnc(-c3cccc(C(=O)NC4CC4)c3)cn2)ccc(C(=O)CC(C)(C)C)c1O
Req: Given the listed items, does a or b have the lesser reported EC50? Pick one and reply with its label.
Resp: a

P: CCCC(=O)c1ccc(OCc2cnc(-c3cccc(C(=O)O)c3OC)cn2)c(C)c1O
Q: CCCC(=O)c1ccc(OCC#CCOc2ccc(C(=O)O)cc2OC)c(C)c1O
Req: Compare P and Q by numeric EC50 and name the larger one. Write down the label of the entry you select.
Resp: P

A: COc1ccc(C(=O)O)cc1OCC#CCOc1ccc(C(=O)CC(C)(C)C)c(O)c1C
B: Cc1c(OCc2cnc(-c3cccc(-c4noc(=O)[nH]4)c3)cn2)ccc(C(=O)CC(C)(C)C)c1O
Req: For the pair A and B , which member has the lower EC50 number? When you have decided, please share the label of that item.
Resp: A
(A: 92 nM, B: 2480 nM)

I: COc1ccc(C(=O)O)cc1-c1cnc(COc2ccc(C(=O)CC(C)(C)C)c(O)c2C)cn1
II: Cc1c(OCc2cnc(-c3cccc(-c4noc(=S)[nH]4)c3)cn2)ccc(C(=O)CC(C)(C)C)c1O
Req: # returns the entry with the larger EC50; inputs I and II Answer by quoting the chosen item's label.
Resp: II

P: CCCC(=O)c1ccc(OCCCCCOc2ccc(F)c(C(=O)O)c2)c(C)c1O
Q: COc1ccc(C(=O)O)cc1OCCCCOc1ccc(C(=O)C(C)(C)C)c(O)c1C
Req: // compare measured EC50 between P and Q ; output the lower one Pick one; state its label.
Resp: P
(P: 39 nM, Q: 288 nM)

1: Cc1c(OCC#CCOc2ccc(C(=O)CC(C)(C)C)c(O)c2C)cccc1C(=O)O
2: COc1ccc(C(=O)O)cc1OCCC(C)COc1ccc(C(=O)CC(C)(C)C)c(O)c1C (stereo not drawn)
Req: Which entry has a larger number for EC50, 1 or 2 ? Lab log: write the label of the selected item as the result.
Resp: 2

P: COc1ccc(C(=O)O)cc1OCCOCCOc1ccc(C(=O)CC(C)(C)C)c(O)c1C
Q: CCCC(=O)c1ccc(OCCCCOc2ccc(C(=O)O)c(Cl)c2)c(C)c1O
Req: Lab log: flag the item ( P or Q ) with the smaller EC50 figure. Identify your selection by its label.
Resp: P
